system: c-Myc; experiment: c-Myc immunofluorescence assay; format: cell-based, human; settings: A549 cells, 24 hours treatment, anti-c-Myc immunofluorescence
measurement-type: Myc Efficacy (−LogEC50)

1. CCN(CC)CCCN(C)C(=O)c1ccc2c(c1)sc1nc(-c3cccc(C)c3)cn12 | ++ (++ ≥5 and <6)
2. NCc1ccc(-c2nc3sc4cc(C(=O)NCCCN5CCC(F)CC5)ccc4n3n2)c(F)c1 | ++ (++ ≥5 and <6)
3. CC(=O)Nc1ccc2c(c1)sc1nc(-c3ccc(C4CCCN4)cc3F)cn12 (centres unmarked) | +++ (+++ ≥6)
4. CN1C2CCC1CC(NC(=O)c1ccc3c(c1)sc1nc(-c4ccc([C@@H]5CCCN5)cc4F)cn13)C2 (some centres unmarked) | ++ (++ ≥5 and <6)
5. CCN(CC)CCCNC(=O)c1ccc2c(c1)sc1nc(-c3ccc(CN)cc3)nn12 | ++ (++ ≥5 and <6)
6. CN1CCC(NC(=O)c2ccc3c(c2)sc2nc(-c4ccc(C5(O)CCNCC5)cc4F)cn23)CC1 | +++ (+++ ≥6)

Output Myc Efficacy (−LogEC50) of NC1(c2ccc(-c3cn4c(n3)sc3cc(C(=O)NCCCN5CCCCC5)ccc34)cc2)CC1 +++ (+++ ≥6)

###

test system: c-Myc; assay: c-Myc immunofluorescence assay; format: cell-based, human; details: A549 cells, 24 hours treatment, anti-c-Myc immunofluorescence
Counter-ions that a name gives are not always drawn.
measurement-type: Myc Efficacy (−LogEC50)

Use these answered entries as a reference point.
1) Cc1cccc(-c2cn3c(n2)sc2cc(NC(=O)C4CCNCC4)ccc23)c1 [compound 168] | ++ (++ ≥5 and <6)
2) O=C(NCCCN1CCCCC1)c1ccc2c(c1)sc1nc(-c3ccc([C@H]4CCCN4)cc3F)nn12 [compound 421] | ++ (++ ≥5 and <6)
3) O=C(NCCCN1CCCCC1)c1ccc2c(c1)sc1nc(-c3ccc(C4CCCN4)cc3F)cn12 (centres unmarked) [compound 416] | +++ (+++ ≥6)
4) O=C(NC1CCOCC1)c1ccc2c(c1)sc1nc(-c3ccc(C4CNCCO4)cc3F)cn12 (centres unmarked) [Compound 535] | +++ (+++ ≥6)
5) CCN(CC)CCCNC(=O)c1ccc2c(c1)sc1nc(-c3cccc(C)c3F)cn12 [compound 143] | ++ (++ ≥5 and <6)
6) CCN(CC)CCCNC(=O)c1ccc2c(c1)sc1nc(-c3ccc(C4COC4)cc3)cn12 [compound 173] | ++ (++ ≥5 and <6)

Now let's try a different one.
Return Myc Efficacy (−LogEC50) for the following molecule: O=C(Nc1ccc2c(c1)sc1nc(-c3ccc(C4CCCN4)cc3F)cn12)C1CCOCC1 (centres unmarked) [Compound 594, hydrochloride] +++ (+++ ≥6)

###

test system: c-Myc; experiment: c-Myc immunofluorescence assay; format: cell-based, human; conditions: A549 cells, 24 hours treatment, anti-c-Myc immunofluorescence
measurement-type: Myc Efficacy (−LogEC50)

Solved cases below.
1. CNC(=O)c1ccc(-c2cn3c(n2)sc2cc(C(=O)NC4CCNCC4)ccc23)c(F)c1 | ++ (++ ≥5 and <6)
2. Cc1cccc(-c2cn3c(n2)sc2cc(C(=O)NCCCN4CCCC4=O)ccc23)c1 | + (+ >3 and <5)
3. NCc1ccc(-c2cn3c(n2)sc2cc(C(=O)NCCCN4CCCCC4)ccc23)c(C(F)(F)F)c1 | ++ (++ ≥5 and <6)
4. CNC(=O)c1ccc(-c2cn3c(n2)sc2cc(C(=O)NCCC(=O)N4CCCCC4)ccc23)cc1 | + (+ >3 and <5)
5. Cc1cccc(-c2cn3c(n2)sc2cc(C(=O)NCCCNCC(F)(F)F)ccc23)c1 | + (+ >3 and <5)

Fill in Myc Efficacy (−LogEC50) for CNC(=O)c1ccc(-c2cn3c(n2)sc2cc(C(=O)NCC4CCC5(CCNCC5)O4)ccc23)cc1 (centres unmarked) tested with c-Myc. + (+ >3 and <5)

###

system: c-Myc; assay: c-Myc immunofluorescence assay; format: cell-based, human; conditions: A549 cells, 24 hours treatment, anti-c-Myc immunofluorescence
measurement-type: Myc Efficacy (−LogEC50)

Example compounds with recorded Myc Efficacy (−LogEC50):
1) NC(=O)c1ccc2c(c1)sc1nc(-c3ccc(C4CCCN4)cc3F)cn12 (centres unmarked) | +++ (+++ ≥6)
2) O=C(NCCCN1CCCCC1)c1ccc2c(c1)sc1nc(-c3ccc(C4CCCN4)cc3)cn12 (centres unmarked) | +++ (+++ ≥6)
3) CCN(CC)CCCNC(=O)c1ccc2c(c1)sc1nc(-c3ccc(CN4CCCC4)cc3)cn12 | +++ (+++ ≥6)
4) CCCNC(=O)c1ccc2c(c1)sc1nc(-c3ccc(C)cc3)cn12 | ++ (++ ≥5 and <6)
5) CCN(CC)CCCNC(=O)c1ccc2c(c1)sc1nc(-c3ccccc3)cn12 | ++ (++ ≥5 and <6)

Please report the measured Myc Efficacy (−LogEC50) for O=C(NC1CCOCC1)c1ccc2c(c1)sc1nc(-c3ccc([C@H]4C[C@@H](O)CN4)cc3F)cn12 (relative stereo) tested on c-Myc. +++ (+++ ≥6)

Output reported Myc Efficacy (−LogEC50) of the compound O=C(NCCCN1CCC(F)CC1)c1ccc2c(c1)sc1nc(-c3ccc(C4CCCN4)c(F)c3)cn12 (centres unmarked) on c-Myc. +++ (+++ ≥6)

###

tested on: c-Myc; assay: c-Myc immunofluorescence assay; format: cell-based, human; conditions: A549 cells, 24 hours treatment, anti-c-Myc immunofluorescence
measurement-type: Myc Efficacy (−LogEC50)

The following compounds have reported results that may help.
1. CCC(CNC(=O)c1ccc2c(c1)sc1nc(-c3ccc(C(=O)NC)cc3)cn12)N(C)C (centres unmarked) [compound 208] | + (+ >3 and <5)
2. CNC(=O)c1ccc(-c2cn3c(n2)sc2cc(C(=O)N[C@H]4CCN(C5CCOCC5)C4)ccc23)cc1 [compound 209] | + (+ >3 and <5)
3. CCN(CC)CCCNC(=O)c1ccc2c(c1)sc1nc(-c3ccc(NC)cc3)cn12 [compound 164] | +++ (+++ ≥6)
4. CCN(CC)CCCNC(=O)c1ccc2c(c1)sc1nc(-c3ccncn3)cn12 [compound 330] | + (+ >3 and <5)

Give reported Myc Efficacy (−LogEC50) value for O=C(NCCCN1CCCCC1)c1ccc2c(c1)sc1nc(-c3ccc([C@H]4CCCN4)cc3)cn12 [compound 412] +++ (+++ ≥6)

Return Myc Efficacy (−LogEC50) for the following compound: CNC(=O)c1ccc(-c2cn3c(n2)sc2cc(C(=O)NCCCn4nc(C)cc4C)ccc23)cc1 [compound 232] − (− ≤3)

Give Myc Efficacy (−LogEC50) for the following compound: CNC(=O)c1ccc(-c2cn3c(n2)sc2cc(C(=O)NC4CC(=O)N(C)C4)ccc23)cc1 (centres unmarked) [compound 236] − (− ≤3)

###

tested on: c-Myc; experiment: c-Myc immunofluorescence assay; type: cell-based, human; details: A549 cells, 24 hours treatment, anti-c-Myc immunofluorescence
measurement-type: Myc Efficacy (−LogEC50)

1. CNC(=O)c1ccc(-c2cn3c(n2)sc2cc(C(=O)N[C@H]4CCCNC4)ccc23)cc1 [compound 227] | ++ (++ ≥5 and <6)
2. CNC(=O)c1ccc(-c2cn3c(n2)sc2cc(C(=O)N[C@H]4CCN(C)C4)ccc23)cc1 [compound 225] | + (+ >3 and <5)
3. CNC(=O)c1ccc(-c2cn3c(n2)sc2cc(C(=O)NCCCN4CCCC4CO)ccc23)cc1 (centres unmarked) [compound 271] | + (+ >3 and <5)
4. CNC(=O)c1ccc(-c2cn3c(n2)sc2cc(C(=O)NCCCN4CCCCC4)ncc23)cc1 [compound 406] | ++ (++ ≥5 and <6)
5. CCN(CC)CCCNC(=O)c1ccc2c(c1)sc1nc(-c3ccc([C@@H](NC)C(F)(F)F)cc3)cn12 [compound 293] | ++ (++ ≥5 and <6)

# context switch: different molecule, same Myc Efficacy (−LogEC50)
For the molecule CCN(CC)CCCNC(=O)c1ccc2c(c1)sc1nc(-c3cccc(C(C)C)c3)cn12 [compound 169] , give its reported Myc Efficacy (−LogEC50). ++ (++ ≥5 and <6)

###

tested on: c-Myc; assay: c-Myc immunofluorescence assay; format: cell-based, human; details: A549 cells, 24 hours treatment, anti-c-Myc immunofluorescence
measurement-type: Myc Efficacy (−LogEC50)

1) CNC(=O)c1ccc(-c2cn3c(n2)sc2cc(C(=O)NCC4CCC(=O)N4C)ccc23)cc1 (stereo not shown) | + (+ >3 and <5)
2) CCN(CC)CCCN(C)C(=O)c1ccc2c(c1)sc1nc(-c3ccc(C(=O)NC)cc3)cn12 | + (+ >3 and <5)
